SUBJECT OF TEST: T1, Human MuSK (R&D Systems, cat. 10189-MK, histidine tag) (human, UniProt O15146 24-495)
T1 construct: Bought protein; also called human monomeric MuSK-6xhis; not shown: histidine tag (6xhis)
T1 sequence: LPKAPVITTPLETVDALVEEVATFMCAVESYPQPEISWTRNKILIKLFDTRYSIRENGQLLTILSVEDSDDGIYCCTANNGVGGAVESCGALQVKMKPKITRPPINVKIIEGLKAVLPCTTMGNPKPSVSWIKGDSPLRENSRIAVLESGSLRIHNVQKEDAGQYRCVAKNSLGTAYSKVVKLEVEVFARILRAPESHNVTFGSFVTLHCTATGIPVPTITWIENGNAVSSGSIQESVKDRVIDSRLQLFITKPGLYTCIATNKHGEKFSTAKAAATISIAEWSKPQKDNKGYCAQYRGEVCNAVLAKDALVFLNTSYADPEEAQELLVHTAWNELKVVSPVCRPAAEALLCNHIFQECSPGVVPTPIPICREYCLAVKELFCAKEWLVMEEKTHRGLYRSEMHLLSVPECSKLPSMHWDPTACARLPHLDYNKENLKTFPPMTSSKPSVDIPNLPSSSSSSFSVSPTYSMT
PROTOCOL DETAILS: SPR (Biacore), antibody captured on anti-hFc chip; 5 nM; dissociation pH 7.4
Listed here: items and their measured koff.
Note: unit s⁻¹ is implicit; provide only the numeric part.

In the examples that follow, each entry is paired with its recorded koff.
BINDER	koff [s⁻¹]
3F6c (antibody, human IgG1, kappa, L234A L235A, V domains shown) VH: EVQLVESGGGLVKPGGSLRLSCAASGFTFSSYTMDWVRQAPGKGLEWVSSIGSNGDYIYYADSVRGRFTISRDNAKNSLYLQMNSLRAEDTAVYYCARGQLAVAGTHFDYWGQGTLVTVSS VL: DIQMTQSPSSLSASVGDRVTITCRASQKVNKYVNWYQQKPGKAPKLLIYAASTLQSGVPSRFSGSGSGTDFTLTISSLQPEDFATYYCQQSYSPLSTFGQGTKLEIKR	7e-05
3D10a (antibody, human IgG1, kappa, L234A L235A, V domains shown) VH: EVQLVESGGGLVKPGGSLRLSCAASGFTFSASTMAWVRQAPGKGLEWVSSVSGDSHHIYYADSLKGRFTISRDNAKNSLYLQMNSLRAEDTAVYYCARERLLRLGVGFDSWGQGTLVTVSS VL: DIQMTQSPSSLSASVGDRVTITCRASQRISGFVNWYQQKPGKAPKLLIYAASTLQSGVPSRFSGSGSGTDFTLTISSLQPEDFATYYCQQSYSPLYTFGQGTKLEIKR	0.00015
3D9b (antibody, human IgG1, kappa, L234A L235A, V domains shown) VH: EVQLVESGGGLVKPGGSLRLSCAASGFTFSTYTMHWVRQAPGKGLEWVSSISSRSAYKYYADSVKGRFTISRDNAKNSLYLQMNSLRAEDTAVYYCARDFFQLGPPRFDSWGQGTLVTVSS VL: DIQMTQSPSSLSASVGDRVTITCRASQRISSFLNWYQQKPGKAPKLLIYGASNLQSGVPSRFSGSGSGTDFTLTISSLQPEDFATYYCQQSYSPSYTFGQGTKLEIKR	8e-05

In: Indicate its recorded koff; the binder in question is 4D3 (antibody, human IgG1, kappa, L234A L235A, V domains shown) VH: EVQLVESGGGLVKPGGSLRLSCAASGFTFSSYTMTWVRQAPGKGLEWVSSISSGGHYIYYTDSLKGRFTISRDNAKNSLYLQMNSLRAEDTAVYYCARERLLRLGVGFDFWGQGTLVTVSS VL: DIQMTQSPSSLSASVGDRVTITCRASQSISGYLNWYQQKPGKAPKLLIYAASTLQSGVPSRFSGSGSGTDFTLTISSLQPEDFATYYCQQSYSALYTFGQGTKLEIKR
Out: 0.00014
